- System: Collinsella aerofaciens
- assay_notes: growth AUC relative to DMSO control (median of replicates) (fraction); higher = more growth (less inhibition), active = hit call of the paper
- test_context: 20 µM; 24 h
Listed here: items and their measured growth AUC.
property_measured: growth AUC

[
  {
    "smiles_representation": "CC(=O)O.CCCCCCCCCCCCN=C(N)N",
    "reading": 0.972
  },
  {
    "smiles_representation": "O=P(O)(O)CCCl",
    "reading": 0.973
  },
  {
    "smiles_representation": "COP(=S)(OC)SCC(=O)N(c1ccc(Cl)cc1)C(C)C",
    "reading": 0.993
  }
]

###

- Tested on: Escherichia coli ED1a
- assay_notes: growth AUC relative to DMSO control (median of replicates) (fraction); higher = more growth (less inhibition), active = hit call of the paper
- test_context: 20 µM; 24 h

[
  {
    "compound": "CCCN(CC1CC1)c1c([N+](=O)[O-])cc(C(F)(F)F)cc1[N+](=O)[O-]",
    "growth AUC": 1.01
  },
  {
    "compound": "Nc1ccncc1",
    "growth AUC": 0.99
  },
  {
    "compound": "O=C(O)COc1nc(Cl)c(Cl)cc1Cl",
    "growth AUC": 0.971
  },
  {
    "compound": "O=c1oc2ccccc2c(O)c1C1CC(c2ccc(-c3ccc(Br)cc3)cc2)Cc2ccccc21 (configuration not stated)",
    "growth AUC": 0.998
  },
  {
    "compound": "Clc1cc(Cl)c(Cl)cc1Cl",
    "growth AUC": 1.02
  },
  {
    "compound": "COP(=O)(NC(C)=O)SC (configuration not stated)",
    "growth AUC": 1.01
  },
  {
    "compound": "CC(C)N(C(=O)CCl)c1ccccc1",
    "growth AUC": 0.982
  },
  {
    "compound": "COC(=O)c1ccccc1CS(=O)(=O)NC(=O)Nc1nc(OC)cc(OC)n1",
    "growth AUC": 0.974
  },
  {
    "compound": "CC(C)(C)C(=O)C(Oc1ccc(Cl)cc1)n1cncn1 (configuration not stated)",
    "growth AUC": 1.02
  },
  {
    "compound": "O=C1OCC2C1C1(Cl)C(Cl)=C(Cl)C2(Cl)C1(Cl)Cl (configuration not stated)",
    "growth AUC": 0.979
  },
  {
    "compound": "Cc1cccc2sc3nncn3c12",
    "growth AUC": 0.987
  },
  {
    "compound": "COP(=S)(OC)SCC(=O)N(c1ccc(Cl)cc1)C(C)C",
    "growth AUC": 0.988
  },
  {
    "compound": "CNC(=S)S",
    "growth AUC": 1.02
  },
  {
    "compound": "CCC(C)(C)c1ccc(O)cc1",
    "growth AUC": 0.978
  },
  {
    "compound": "CC(C)=NOCCOC(=O)[C@@H](C)Oc1ccc(Oc2cnc3cc(Cl)ccc3n2)cc1",
    "growth AUC": 1.01
  },
  {
    "compound": "O=C1C=CC(=O)C=C1",
    "growth AUC": 1.01
  },
  {
    "compound": "Clc1ccc(Cl)c(Cl)c1Cl",
    "growth AUC": 0.973
  },
  {
    "compound": "N#Cc1c(Cl)cccc1Cl",
    "growth AUC": 0.999
  },
  {
    "compound": "CC1(C)C(/C=C(\\Cl)c2ccc(Cl)cc2)C1C(=O)OC(C#N)c1ccc(F)c(Oc2ccccc2)c1 (configuration not stated)",
    "growth AUC": 0.986
  },
  {
    "compound": "O=C(O)COc1ccccc1",
    "growth AUC": 0.981
  },
  {
    "compound": "CCS(=O)(=O)Cc1ccccc1OC(=O)NC",
    "growth AUC": 1
  },
  {
    "compound": "COC(=O)c1ccccc1S(=O)(=O)NC(=O)N(C)c1nc(C)nc(OC)n1",
    "growth AUC": 0.982
  }
]

###

Reported growth AUC values for the following molecules.
- Test system: Escherichia coli IAI1
- assay_notes: growth AUC relative to DMSO control (median of replicates) (fraction); higher = more growth (less inhibition), active = hit call of the paper
- test_context: 20 µM; 24 h

[
  {
    "molecule": "COc1cc(OC)n2nc(S(=O)(=O)Nc3c(Cl)ccc(C)c3Cl)nc2n1",
    "growth AUC": 1.02
  },
  {
    "molecule": "O=C1C(Cl)=C(Cl)C(=O)C(Cl)=C1Cl",
    "growth AUC": 1.02
  },
  {
    "molecule": "CC(C)(COCc1cccc(Oc2ccccc2)c1)c1ccc(OC(F)(F)Br)cc1",
    "growth AUC": 0.995
  },
  {
    "molecule": "COCC(C)N(C(=O)CCl)c1c(C)csc1C (centres undefined)",
    "growth AUC": 0.993
  },
  {
    "molecule": "Nc1nc(N)nc(N)n1",
    "growth AUC": 1.02
  },
  {
    "molecule": "CNC(=O)Oc1ccccc1OC(C)C",
    "growth AUC": 0.982
  },
  {
    "molecule": "CC1=NNC(=O)N(/N=C/c2cccnc2)C1",
    "growth AUC": 0.991
  },
  {
    "molecule": "CCC(C)(CC)c1cc(NC(=O)c2c(OC)cccc2OC)on1",
    "growth AUC": 0.988
  },
  {
    "molecule": "COP(=S)(Oc1cc(Cl)c(Br)cc1Cl)c1ccccc1 (centres undefined)",
    "growth AUC": 0.992
  },
  {
    "molecule": "CCNC(=O)NC(=O)/C(C#N)=N/OC",
    "growth AUC": 1.02
  },
  {
    "molecule": "c1ccc2c(c1)-c1cccc3cccc-2c13",
    "growth AUC": 1
  },
  {
    "molecule": "CCSC(C)CC1CC(=O)C(/C(CC)=N/OC/C=C/Cl)=C(O)C1 (mixture of isomers)",
    "growth AUC": 1.01
  },
  {
    "molecule": "NC(=O)/N=C1/SCCN1Cc1ccc(Cl)nc1",
    "growth AUC": 0.997
  },
  {
    "molecule": "CNC(=O)O/N=C(\\C)SC",
    "growth AUC": 1.01
  },
  {
    "molecule": "CNC1=C(c2cccc(C(F)(F)F)c2)C(=O)C(c2ccccc2)O1 (centres undefined)",
    "growth AUC": 0.992
  },
  {
    "molecule": "CCOP(=S)(OCC)Oc1cnc2ccccc2n1",
    "growth AUC": 0.977
  },
  {
    "molecule": "Clc1ccc(Cl)c(Cl)c1",
    "growth AUC": 0.974
  },
  {
    "molecule": "O=C1c2ccccc2C(=O)N1SC(Cl)(Cl)Cl",
    "growth AUC": 1.02
  },
  {
    "molecule": "CCS(=O)Cc1ccccc1OC(=O)NC (centres undefined)",
    "growth AUC": 0.971
  }
]

###

- Test system: Bacteroides stercoris
- assay_notes: growth AUC relative to DMSO control (median of replicates) (fraction); higher = more growth (less inhibition), active = hit call of the paper
- test_context: 20 µM; 24 h
growth AUC values by entry
property_measured: growth AUC

[
  {
    "compound": "O=C(O)C(F)(F)C(F)(F)C(F)(F)C(F)(F)C(F)(F)C(F)(F)C(F)(F)C(F)(F)C(F)(F)F",
    "reading": 0.998
  },
  {
    "compound": "CCOC(=O)CCN(SN(C)C(=O)Oc1cccc2c1OC(C)(C)C2)C(C)C",
    "reading": 0.982
  },
  {
    "compound": "CCS(=O)(=O)CCSP(=O)(OC)OC",
    "reading": 0.979
  },
  {
    "compound": "COP(=S)(OC)Oc1ccc(C#N)cc1",
    "reading": 1.02
  },
  {
    "compound": "CCC(=O)Nc1ccc(Cl)c(Cl)c1",
    "reading": 0.972
  },
  {
    "compound": "CNC(=O)Oc1ccccc1OC(C)C",
    "reading": 1.01
  },
  {
    "compound": "CC(=O)CC(c1ccco1)c1c(O)c2ccccc2oc1=O (stereo not drawn)",
    "reading": 1
  },
  {
    "compound": "C#CCN1CC(=O)N(COC(=O)C2C(C=C(C)C)C2(C)C)C1=O (mixture of isomers)",
    "reading": 0.986
  }
]

###

- Test system: Bacteroides thetaiotaomicron
- assay_notes: growth AUC relative to DMSO control (median of replicates) (fraction); higher = more growth (less inhibition), active = hit call of the paper
- test_context: 20 µM; 24 h
property_measured: growth AUC

[
  {
    "compound": "Cc1cccc2sc3nncn3c12",
    "reading": 0.993
  },
  {
    "compound": "Clc1ccc(Cl)c(Cl)c1",
    "reading": 1.02
  },
  {
    "compound": "CCCCNC(=O)n1c(NC(=O)OC)nc2ccccc21",
    "reading": 0.999
  },
  {
    "compound": "Cc1[nH]c(=O)n(C(C)(C)C)c(=O)c1Cl",
    "reading": 1
  },
  {
    "compound": "CCOP(=O)(NC(C)C)Oc1ccc(S(C)(=O)=O)c(C)c1 (stereo not drawn)",
    "reading": 1.02
  },
  {
    "compound": "COP(=O)(OC)Oc1ccc(S(C)=O)c(C)c1 (stereo not drawn)",
    "reading": 0.972
  },
  {
    "compound": "O=S(=O)(c1ccccc1)c1ccccc1",
    "reading": 0.997
  },
  {
    "compound": "CNC(=O)/C(=N/OC)c1ccccc1Oc1ccccc1",
    "reading": 0.975
  },
  {
    "compound": "O=C(O)c1ccc(=O)[nH]c1",
    "reading": 0.984
  },
  {
    "compound": "N#Cc1c(Cl)cccc1Cl",
    "reading": 1
  },
  {
    "compound": "C#CCC1=C(C)C(OC(=O)C2C(C=C(C)C)C2(C)C)CC1=O (stereo not drawn)",
    "reading": 1.01
  },
  {
    "compound": "COP(=O)(OC)Oc1ccc(SC)c(C)c1",
    "reading": 0.979
  },
  {
    "compound": "O=C1C=CC(=O)C=C1",
    "reading": 1.01
  }
]

Reference source: the supplement of paper PMC12669032
